# tested_system: Caspase-1 (Homo sapiens)
# Construct: mixing the compounds with the respective active caspases; purchased BioVision K151-100
# Sequence (P29466 120-297 limits assumed): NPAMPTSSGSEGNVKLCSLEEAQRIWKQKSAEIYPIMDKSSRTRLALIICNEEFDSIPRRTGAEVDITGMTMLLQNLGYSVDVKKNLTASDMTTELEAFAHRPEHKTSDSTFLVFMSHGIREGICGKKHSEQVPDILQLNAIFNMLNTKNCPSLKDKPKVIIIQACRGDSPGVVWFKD
# Sequence (P29466 317-404 limits assumed): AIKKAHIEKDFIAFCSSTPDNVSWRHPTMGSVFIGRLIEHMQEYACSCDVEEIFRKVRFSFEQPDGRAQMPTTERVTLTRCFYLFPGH
# method_summary: Caspase-1 inhibitor screening assay (BioVision kit, YVAD-AFC)
# Assay type: biochemical
# condition_parameters: read-out: % Inhibition at 100 uM Casp1
Please enter true (1) where inhibition at 100 µM is greater than or equal to 1%, and false (0) where it is lower.

CC(C)[C@H](NC(=O)[C@@H](NC(=O)[C@H](CC(=O)O)NC(=O)OCc1ccccc1)c1ccccc1)C(=O)N[C@H](/C=C/S(C)(=O)=O)CCC(=O)O    false (0)
CC(C)(C)OC(=O)CC[C@H](NC(=O)OC(C)(C)C)C(=O)N[C@H](/C=C/S(C)(=O)=O)CC(=O)OC(C)(C)C    true (1)
CC(C)(C)[C@H](NC(=O)c1ccc2ncccc2c1)C(=O)N1CCCC1C(=O)N[C@H](/C=C/S(C)(=O)=O)CC(=O)O (stereo in doubt)    true (1)
CC(C)[C@H](NC(=O)OCc1ccccc1)C(=O)N[C@H](/C=C/S(C)(=O)=O)CC(=O)O    true (1)

Turning to the following compound.
Would you say CC(C)[C@H](NC(=O)c1ccc2ccccc2n1)C(=O)N[C@H](/C=C/S(C)(=O)=O)CC(=O)O shows inhibition at 100 µM at minimum 1%?
false (0)

----------
# tested_system: Caspase-6 (Homo sapiens, UniProt P55212)
# Construct: mixing the compounds with the respective active caspases; purchased BioVision K156-100
# Sequence (P55212 24-179 limits assumed): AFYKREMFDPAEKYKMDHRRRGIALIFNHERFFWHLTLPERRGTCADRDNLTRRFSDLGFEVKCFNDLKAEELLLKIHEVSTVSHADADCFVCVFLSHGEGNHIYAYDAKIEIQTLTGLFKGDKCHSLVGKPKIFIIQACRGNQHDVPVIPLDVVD
# Sequence (P55212 194-293 limits assumed): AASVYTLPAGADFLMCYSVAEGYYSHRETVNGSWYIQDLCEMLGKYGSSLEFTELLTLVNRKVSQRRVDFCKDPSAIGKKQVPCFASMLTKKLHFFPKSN
# method_summary: Caspase-6 inhibitor screening assay (BioVision kit, VEID-AFC)
# Format: biochemical
# condition_parameters: read-out: % Inhibition at 100 uM Casp6
endpoint_label: inhibition at 100 µM (%)
Numbers only, in %.

CC(C)(C)[C@H](NC(=O)c1ccc2ccccc2n1)C(=O)N1CC[C@@H]1C(=O)N[C@H](/C=C/S(C)(=O)=O)CC(=O)O    0
CCC(C)[C@H](NC(=O)[C@H](CCC(=O)O)NC(=O)[C@@H](NC(=O)OCc1ccccc1)C(C)C)C(=O)N[C@H](/C=C/S(C)(=O)=O)CC(=O)O (stereo partly shown)    96

// batch mode: one inhibition at 100 µM value per listed entry
1. CS(=O)(=O)/C=C/[C@H](CC(=O)O)NC(=O)[C@@H](N)CCC(=O)O
2. CS(=O)(=O)/C=C/[C@H](CC(=O)O)NC(=O)[C@H]1CCC(=O)N1

1. 0
2. 0

// batch mode: one inhibition at 100 µM value per listed entry
1. CC(C)(C)[C@H](NC(=O)c1ccc(N)c(Cl)c1)C(=O)N1CCCC1C(=O)N[C@H](/C=C/S(C)(=O)=O)CC(=O)O (stereo in doubt)
2. CC(C)(C)[C@H](NC(=O)c1ccc2ncccc2c1)C(=O)N1CCCC1C(=O)N[C@H](/C=C/S(C)(=O)=O)CC(=O)O (stereo in doubt)
3. CC(C)[C@H](NC(=O)[C@H](CCC(=O)O)NC(=O)[C@H](Cc1c[nH]c2ccccc12)NC(=O)OCc1ccccc1)C(=O)N[C@H](/C=C/S(C)(=O)=O)CC(=O)O
4. CCOC(=O)/C=C/[C@H](CC(=O)O)NC(=O)[C@H]1CCCN1C(=O)[C@@H](NC(=O)c1ccc2ccccc2n1)C(C)(C)C
5. CS(=O)(=O)/C=C/[C@H](CC(=O)O)NC(=O)C1CCCN1C(=O)[C@@H](NC(=O)[C@H](CC(=O)O)NC(=O)OCc1ccccc1)C1CC1 (stereo in doubt)
6. CC(C)[C@H](NC(=O)[C@@H](N)Cc1ccc(O)cc1)C(=O)N[C@@H](C)C(=O)N[C@H](/C=C/S(C)(=O)=O)CC(=O)O
7. CC(C)(C)[C@@H](NC(=O)[C@H](CC(=O)O)NC(=O)OCc1ccccc1)C(=O)N1CC[C@@H]1C(=O)N[C@H](/C=C/S(C)(=O)=O)CC(=O)O

[30, 0, 51, 6, 4, 4, 1]

// batch mode: one inhibition at 100 µM value per listed entry
1. CC(C)[C@H](NC(=O)OCc1ccccc1)C(=O)N[C@H](/C=C/S(C)(=O)=O)CC(=O)O
2. CC(C)(C)[C@H](NC(=O)c1ccc2ccccc2n1)C(=O)N1CCC[C@@H]1C(=O)N[C@H](/C=C/S(C)(=O)=O)CC(=O)O
3. CS(=O)(=O)/C(Cl)=C/[C@@H](N)CC(=O)O
4. CC(C)(C)[C@H](NC(=O)[C@H](CC(=O)O)NC(=O)OCc1ccccc1)C(=O)N1CCCC1C(=O)N[C@H](/C=C/S(C)(=O)=O)CC(=O)O (stereo in doubt)
5. CS(=O)(=O)/C=C/[C@H](CC(=O)O)NC(=O)[C@H]1CCCN1C(=O)[C@@H](NC(=O)[C@H](CC(=O)O)NC(=O)OCc1ccccc1)c1ccccc1
6. CC(C)(C)[C@H](NC(=O)c1ccc2ncccc2n1)C(=O)N1CCCC1C(=O)N[C@H](/C=C/S(C)(=O)=O)CC(=O)O (stereo in doubt)

1: 0; 2: 3; 3: 0; 4: 7; 5: 2; 6: 1
